system: P388 leukemia ip, CD2F1 mice, survival T/C; test: NCI In Vivo Anticancer Drug Screen. Data for tumor model P388 Leukemia (intraperitoneal) in CD2F1 (CDF1) mice; settings: endpoint: median survival time; dose: 12.5 mg/kg/injection; schedule: Q01DX005 (ip); vehicle: saline; higher = longer survival
Toxic doses and inconclusive results are not listed.
readout-label: T/C

// solved cases for T/C follow
>>> measured("CN1CCC2(C)CC1Cc1ccc(O)cc12 (stereo not given)")
"105 % of control"
>>> measured("O=C(O)c1cc2c(c(C(=O)O)c1O)CCCC2")
"92 % of control"
>>> measured("CCC1(c2cccc(C=O)c2)CCCCN(C)C1 (stereo not given)")
"99 % of control"
>>> measured("COC1=CC(=Nc2cc(Br)c(O)c(Br)c2)C=CC1=O")
"108 % of control"

# ---- query molecule ----
Just so you know, measured T/C for CC(=O)OCC#CCN1CCCCC1 came out at 104 % of control
